Data credit: PubChem BioAssay (NCI)

- assay comment: NCI Yeast Anticancer Drug Screen. Data for the mlh1 rad18 strain (AID 175)
- protocol conditions: S. cerevisiae mlh1 rad18 strain growth inhibition; at 50.0 µM
About 79,000 compounds went through this panel and 15% of them were active in at least one assay; those are over-represented in the sample as a whole. Active and inactive are the calls of the source. Rule as the data show it: active = growth inhibition above about 70%; inactive = the rest.
Classes used: yes (1) = active, no (0) = inactive

>  <compound>
O=C(Nc1ccc(S(=O)(=O)NC2CCCCC2)cc1)OC1CCCCCCC1

>  <class>
yes (1)

$$$$
>  <compound>
CC1C(=O)C(C)C(c2ccccc2)N(C)C1c1ccccc1 (stereo not drawn)

>  <class>
yes (1)

$$$$
>  <compound>
CC1(c2ccccc2)OC1C(=O)N(c1ccccc1)c1ccccc1 (stereo not drawn)

>  <class>
yes (1)

$$$$
>  <compound>
N#CC1Sc2ccccc2N1C(=O)Oc1ccccc1 (stereo not drawn)

>  <class>
yes (1)

$$$$
>  <compound>
CCOC(=O)C1=C(C)NC(C)=C(C(=O)OCC)C1c1ccnc2ccccc12

>  <class>
no (0)

$$$$
>  <compound>
CN(C)CC(O)c1cc(-c2ccc(Cl)cc2)nc2c(Cl)cc(Cl)cc12 (stereo not drawn)

>  <class>
yes (1)

$$$$
>  <compound>
CCCCC1C(=O)N2c3ccccc3-c3ccccc3N2C1=O

>  <class>
no (0)

$$$$
>  <compound>
O=C(Cc1nc2ccccc2s1)Nc1ccc2ccccc2c1

>  <class>
yes (1)

$$$$
>  <compound>
O=Nc1c(NO)c2ccccc2c2ccccc12

>  <class>
yes (1)

$$$$
>  <compound>
CN(C)NC(=S)C(F)(F)F

>  <class>
yes (1)

$$$$
>  <compound>
O=C1OC(=O)C2C1C1C(c3ccccc3)=C(c3ccccc3)C2(O)C2C(=O)OC(=O)C12 (stereo not drawn)

>  <class>
no (0)

$$$$
>  <compound>
Cc1ccc(/C=C2\CCC/C(=C\c3ccc(O)c(CN4CCCCC4)c3)C2=O)cc1

>  <class>
yes (1)

$$$$
>  <compound>
COc1ccc(-c2ccccc2)cc1SCCC(=O)O

>  <class>
yes (1)

$$$$
>  <compound>
c1ccc2c(c1)Cc1nc3ccccc3nc1-2

>  <class>
yes (1)

$$$$
>  <compound>
COc1ccc(CCBr)cc1

>  <class>
no (0)

$$$$
>  <compound>
CCC/C(=N\NC(=S)N(C)C)c1ccccn1

>  <class>
yes (1)

$$$$
>  <compound>
OC(c1cc(-c2ccccc2)nc2c(Cl)cc(Cl)cc12)C1CCCCN1 (stereo not drawn)

>  <class>
yes (1)

$$$$
>  <compound>
COC(=O)c1c(C)cccc1C(=O)c1c(C)cc(C)cc1C

>  <class>
yes (1)

$$$$
>  <compound>
O=C(Cl)c1ccc(N=Nc2ccccc2)cc1

>  <class>
yes (1)

$$$$
>  <compound>
Cc1ccc(S(=O)(=O)S/C(=N\c2ccccn2)Nc2ccccn2)cc1

>  <class>
no (0)

$$$$
>  <compound>
O=C1OC(C2OC(=O)C(=O)C2C(=O)c2ccc(Cl)cc2)C(C(=O)c2ccc(Cl)cc2)C1=O (stereo not drawn)

>  <class>
yes (1)

$$$$
>  <compound>
CCOC(=O)c1cnn(-c2ccccc2)c1N

>  <class>
yes (1)

$$$$
>  <compound>
COc1cccc2c1N[S@](=O)S2

>  <class>
no (0)

$$$$
>  <compound>
CC(C)=NOCCOC(=O)C(c1ccccc1)c1ccccc1

>  <class>
yes (1)

$$$$
>  <compound>
O=C1/C(=C/c2ccccc2)CNC/C1=C\c1ccccc1

>  <class>
yes (1)

$$$$
>  <compound>
O=C(/C=C/c1cccnc1)c1cc(Cl)ccc1O

>  <class>
no (0)

$$$$
>  <compound>
COc1cc(CC(=O)O)c(Cc2ccc3c(c2)Cc2ccccc2-3)cc1OC

>  <class>
no (0)

$$$$
>  <compound>
COC(=O)/C=C1/OC(c2ccccc2)=C(C)C1=O

>  <class>
no (0)

$$$$
>  <compound>
CC(=O)OCC1OC(OC2C=C(O[Si](C)(C)C)C[C@H]3C(=O)C=CC(=O)[C@@H]23)C(OC(C)=O)C(OC(C)=O)C1OC(C)=O (stereo partly drawn)

>  <class>
no (0)

$$$$
>  <compound>
[O-][n+]1onc2ncccc21

>  <class>
yes (1)

$$$$
>  <compound>
Cc1ccc(S(=O)(=O)N2CCN(C)CC2)cc1

>  <class>
no (0)

$$$$
>  <compound>
C/C(=N\NC(=S)N/N=C(\C)c1ccccn1)c1ccccn1

>  <class>
yes (1)

$$$$
>  <compound>
COc1ccc2ccccc2c1/C=C/C(=O)c1ccccc1

>  <class>
no (0)

$$$$
>  <compound>
CCCOCCC#N

>  <class>
no (0)

$$$$
>  <compound>
O=C1C=CC(Nc2cccc([N+](=O)[O-])c2)C1Nc1cccc([N+](=O)[O-])c1 (stereo not drawn)

>  <class>
yes (1)

$$$$
>  <compound>
CC1CC(OC(=O)Nc2ccccc2)CC(C)(C)C1 (stereo not drawn)

>  <class>
yes (1)

$$$$
>  <compound>
O=C(NCCCNCCCCNCCCNC(=O)c1cc(-c2ccccc2)nc2ccccc12)c1cc(-c2ccccc2)nc2ccccc12

>  <class>
yes (1)

$$$$
>  <compound>
COc1ccc(SC2=C(N(C)C)C(=O)c3ccccc3C2=O)cc1

>  <class>
yes (1)

$$$$
>  <compound>
FC(F)(F)c1ccccc1NC(=S)SCc1ccc(Cl)cc1

>  <class>
yes (1)

$$$$
>  <compound>
N#CCCN(CCC#N)Cc1cc(-c2ccccc2)ccc1O

>  <class>
yes (1)

$$$$
>  <compound>
CCCCNCCC(SSSC(CCNCCCC)c1ccc(Cl)cc1)c1ccc(Cl)cc1 (stereo not drawn)

>  <class>
yes (1)

$$$$
>  <compound>
Cc1cc2c(Br)cc(Br)c(O)c2nc1C(=O)c1ccccc1

>  <class>
no (0)

$$$$
>  <compound>
COc1cc(C(=O)CBr)c2ccc(Cl)cc2n1

>  <class>
yes (1)

$$$$
>  <compound>
CCOC(=O)C(NS(=O)(=O)c1ccccc1)(C(F)(F)F)P(=O)(OCC(C)C)OCC(C)C (stereo not drawn)

>  <class>
yes (1)

$$$$
>  <compound>
O=[N+]([O-])c1ccccc1Oc1ccc([N+](=O)[O-])c(C(F)(F)F)c1

>  <class>
yes (1)

$$$$
>  <compound>
CCOC(=O)c1c(NC(=O)CBr)sc(C)c1C

>  <class>
no (0)

$$$$
>  <compound>
O=S(=O)(Nc1ccccc1Cl)c1ccccc1

>  <class>
no (0)

$$$$
>  <compound>
CCCCCCCCC1(OCCCS(=O)(=O)O)COc2ccccc2OCCOCCOc2ccccc2OC1

>  <class>
yes (1)

$$$$
